- System: brown rice planthoppers (Nilaparavata lugens)
- assay.name: Test Example 7: mortality and residual effect on brown rice planthoppers on sprayed potted rice plants
- Format: in vivo
- test.context: Oryza sativa, 24 h, read-out: Mortality (%) liberated 4 days after application
Would you mind telling me the reported mortality at 100 ppm of each entry?
Answer format: numeric, % implied, no suffix.

Look up mortality at 100 ppm of CCC(C)c1ccccc1OC(=O)NC (centres unmarked) [(C), BPMC, reference compound] and report it.
6

Look up mortality at 100 ppm of CCOc1ccc(C(C)(C)COCc2cccc(Oc3ccccc3)c2)cc1 [(B), reference compound] and report it.
65

Look up mortality at 100 ppm of C=CC(C)(CCCc1ccc(F)c(Oc2ccccc2)c1)c1ccc(OCC)cc1 (centres unmarked) and report it.
100

Look up mortality at 100 ppm of C#CC(C)(CCCc1ccc(F)c(Oc2ccccc2)c1)c1ccc(OCC)cc1 (centres unmarked) and report it.
100

Look up mortality at 100 ppm of C#CC(C)(CCCc1cccc(Oc2ccccc2)c1)c1ccc(OCC)cc1 (centres unmarked) and report it.
95

Look up mortality at 100 ppm of C#CC(C)(CCCc1cccc(Oc2ccccc2)c1)c1ccc(OCC=C)cc1 (centres unmarked) and report it.
93

Look up mortality at 100 ppm of CCC(C)(CCCc1cccc(Oc2ccccc2)c1)c1ccc(Cl)cc1 (centres unmarked) [(A), reference compound] and report it.
44

Look up mortality at 100 ppm of C=CC(C)(CCCc1cccc(Oc2ccccc2)c1)c1ccc(OCC)cc1 (centres unmarked) and report it.
100

Reference source for all entries: patent US4772633A
